Where these numbers come from: ChEMBL document CHEMBL3627646

Tested on: Micrococcus flavus
Test: Antibacterial activity against Micrococcus flavus ATCC 10240 after 24 hrs by microbroth double dilution method
Type: functional
Conditions: ATCC 10240, 24 h
Please respond with reported MIC for every item in the list.
Supply the numeric figure in µM, leaving out any unit text.

Query string: Using the record for CC(C)(C)C1=CC(=O)C(N2CCC[C@H]2C(=O)O)=CC1=O , report its MIC.
Result string: 2260

Query string: Using the record for C[C@H](NC1=CC(=O)C=C(C(C)(C)C)C1=O)C(=O)O , report its MIC.
Result string: 2490

Query string: Using the record for CC(C)[C@@H](NC1=CC(=O)C=C(C(C)(C)C)C1=O)C(=O)O , report its MIC.
Result string: 2240

Query string: Using the record for CC1=CCC[C@H]2[C@](C)(CC3=CC(=O)C=C(N[C@@H](C(=O)O)C(C)C)C3=O)[C@@H](C)CC[C@]12C , report its MIC.
Result string: 91.3

Query string: Using the record for CC(C)(C)C1=CC(=O)C=C(NCC(=O)O)C1=O , report its MIC.
Result string: 2640

Query string: Using the record for CC1=CCC[C@H]2[C@](C)(CC3=CC(=O)C=C(NCC(=O)O)C3=O)[C@@H](C)CC[C@]12C , report its MIC.
Result string: 407

Query string: Using the record for CC1=CCC[C@H]2[C@](C)(CC3=CC(=O)C=CC3=O)[C@@H](C)CC[C@]12C , report its MIC.
Result string: 20

Query string: Using the record for NCC[C@H](O)C(=O)N[C@@H]1C[C@H](N)[C@@H](O[C@H]2O[C@H](CN)[C@@H](O)[C@H](O)[C@H]2O)[C@H](O)[C@H]1O[C@H]1O[C@H](CO)[C@@H](O)[C@H](N)[C@H]1O , report its MIC.
Result string: 3.42
